Assay: Solubility in selected media (FaSSIF, FeSSIF, FaSSGF, pH 4 citrate, pH 6.8 phosphate)
Assay type: physicochemical
Conditions: FaSSGF, fassgf or other biorelevant, thermodynamic from solid; read-out: Solubility: HPLC Result
ASSAY_METRIC: solubility

[[record]]
compound = "CC(=O)c1nn(CC(=O)N2[C@H](C(=O)Nc3nc(Br)ccc3C)C[C@@]3(C)C[C@@H]23)c2ccc(-c3cnc(C)nc3)cc12 [Compound 3 Form A]"
obs_value = "< 10 µg/mL"


----------
Reported values of efflux ratio for individual entries
Experiment: Caco2 permeability and efflux ratio
Type: in vitro ADME
Conditions: human, Caco-2; Caco2; read-out: Efflux ratio (B-A/A-B)
ASSAY_METRIC: efflux ratio

[[record]]
chemical_smiles = "CC(=O)c1nn(CC(=O)N2[C@H](C(=O)Nc3nc(Br)ccc3C)C[C@@]3(C)C[C@@H]23)c2c(C)cc(-c3cnc(C)nc3)cc12"
assay_metric = "efflux ratio"
obs_value = 1.2

[[record]]
chemical_smiles = "CC(=O)c1nn(CC(=O)N2[C@H](C(=O)Nc3nc(Br)ccc3C)C[C@@]3(C)C[C@@H]23)c2ccc(-c3cnc(C)nc3)cc12"
assay_metric = "efflux ratio"
obs_value = 2.2


----------
Experiment: Enabling form study: solubility from RT slurry in solvents (Table 2)
Format: physicochemical
Conditions: ethyl acetate, organic solvent or mixture, thermodynamic from solid, EtOAc
ASSAY_METRIC: solubility

[[record]]
molecule = "CC(=O)c1nn(CC(=O)N2[C@H](C(=O)Nc3nc(Br)ccc3C)C[C@@]3(C)C[C@@H]23)c2ccc(-c3cnc(C)nc3)cc12 [Compound 3]"
obs_value = "~14.5 mg/mL"


----------
Experiment: pH experiments and SIF/SGF/FaSSIF/FeSSIF solubility (Examples 3 and 4)
Format: physicochemical
Settings: FeSSIF; read-out: FeSSIF solubility
ASSAY_METRIC: solubility (µg/mL)

[[record]]
chemical_smiles = "CC(=O)c1nn(CC(=O)N2[C@H](C(=O)Nc3nc(Br)ccc3C)C[C@@]3(C)C[C@@H]23)c2c(C)cc(-c3cnc(C)nc3)cc12"
unit_spec = "µg/mL"
obs_value = 4.7

[[record]]
chemical_smiles = "CC(=O)c1nn(CC(=O)N2[C@H](C(=O)Nc3nc(Br)ccc3C)C[C@@]3(C)C[C@@H]23)c2ccc(-c3cnc(C)nc3)cc12"
unit_spec = "µg/mL"
obs_value = 153


----------
Test: Solvent experiments (solubility, Example 3)
Type: physicochemical
Conditions: ethanol, organic solvent or mixture
ASSAY_METRIC: solubility (µg/mL)

[[record]]
chemical_smiles = "CC(=O)c1nn(CC(=O)N2[C@H](C(=O)Nc3nc(Br)ccc3C)C[C@@]3(C)C[C@@H]23)c2ccc(-c3cnc(C)nc3)cc12"
assay_metric = "solubility"
unit_spec = "µg/mL"
obs_value = 8380


----------
Assay: Solvent solubility screen by solvent addition (lyophilized material)
Format: physicochemical
Details: thermodynamic from solid; n-heptane, tert-butylmethyl ether, ethyl ether, water, 50% 2-propanol/50% water, 40% ethanol/60% water; read-out: Solubility (solvent addition)
ASSAY_METRIC: solubility

[[record]]
chemical_smiles = "CC(=O)c1nn(CC(=O)N2[C@H](C(=O)Nc3nc(Br)ccc3C)C[C@@]3(C)C[C@@H]23)c2ccc(-c3cnc(C)nc3)cc12"
obs_value = "< 10000 µg/mL"

